test system: Wolbachia pipientis; test: Anti-Wolbachia Cell-Based Screen; format: functional; design: scale not given: in the data most compounds retested in dose-response had high values; conditions: 5 µM
Out of some 48,000 compounds screened, about 13,000 (27%) showed an effect of 50% or more. The list shows a part of the results.
RESULT TYPE: Percent Effect (%)
One number for each entry, in %.

Please review the following examples before continuing.
[[record]]
compound = "CC1(C)CNC(=O)c2nc(C3CCCN(S(C)(=O)=O)C3)[nH]c2C1 (stereo unspecified)"
unit = "%"
recorded_result = -1.918

[[record]]
compound = "CC(=O)NCc1nnc2n1CCN(c1nc(C)nc3sccc13)CC2"
unit = "%"
recorded_result = -5.354

[[record]]
compound = "CSCCC(O)C(=O)N1CCN(Cc2cccc(Cl)c2)CC1 (stereo unspecified)"
unit = "%"
recorded_result = 8.238

[[record]]
compound = "Cl.Cn1cncc1CN1CCc2nc3sccc3c(=O)n2CC1"
unit = "%"
recorded_result = 103.5

[[record]]
compound = "CC(C)(N)C(=O)N1CCCC1c1cncc(Oc2ccc(F)cc2)n1 (stereo unspecified)"
unit = "%"
recorded_result = 9.255


I'm hoping you can list Percent Effect for every compound here, please.
1. CC(C)NS(=O)(=O)c1cc(C(=O)O)cc(-c2ccccc2CO)c1
2. Cc1ccccc1N1CCN(c2ccncn2)C(C)C1 (stereo unspecified)
3. COc1ccccc1OCC(=O)NS(=O)(=O)c1ccccc1F
4. Cc1nc(Nc2nccs2)cc(C2CN(C(C)C)C2)n1
5. CC(C)(C)c1nccc(N2CCC(OCCN3CCCCC3)C2)n1 (stereo unspecified)

Output line:
1: 11.88; 2: 0.9098; 3: -1.762; 4: 64.11; 5: 4.599

---

Hi there, I'd appreciate the recorded Percent Effect for every entry that follows.
tested on: Wolbachia pipientis; assay: Anti-Wolbachia Cell-Based Screen; assay type: functional; parameters: scale not given: in the data most compounds retested in dose-response had high values; conditions: 5 µM
Among all 48,000 compounds or so, about 13,000 (27%) showed an effect of 50% or more. The list shows a part of the results.
Answers are plain numbers, in %.

[[record]]
molecule = "CC(c1ccco1)N(C(=O)COc1ccc(C#N)cc1)C1CC1 (stereo not drawn)"
recorded_result = 1.408


I'm hoping you can list Percent Effect for every molecule here, please.
1. CC(c1ccco1)N(C)C(=O)NCCOc1ccc(C#N)cc1 (stereo not drawn)
2. CC(c1ccncc1)N(C)C(=O)NCCOc1ccc(C#N)cc1 (stereo not drawn)

Output line:
99.5
100.4

---

system: Wolbachia pipientis; assay: Anti-Wolbachia Cell-Based Screen; type: functional; design: scale not given: in the data most compounds retested in dose-response had high values; details: 5 µM
Hit rate of the full screen: of about 48,000 compounds, about 13,000 (27%) showed an effect of 50% or more. The list shows a part of the results.
Entry flag: fulfilled if Percent Effect reaches 60%; not fulfilled if it does not.

These recorded examples may help you get a feel for the data.
[[record]]
molecule = "O=C(Cc1ccc(F)cc1)N1CCCC(c2n[nH]c3nccnc23)C1 (stereo unspecified)"
class_assignment = "fulfilled"

[[record]]
molecule = "COC(=O)N1CCc2ccccc2C1C(=O)NCC(F)(F)F (stereo unspecified)"
class_assignment = "not fulfilled"


Input line: Confirm if Percent Effect reported for the molecule CCc1cnc(CN(C)C(C)C(=O)N2CCc3ccccc3C2)s1 (stereo unspecified) is 60% or above.
Output line: not fulfilled

Input line: Confirm if Percent Effect reported for the molecule `O=C(c1ccco1)N1CCC(n2nc(-c3ccco3)ccc2=O)CC1` is 60% or above.
Output line: fulfilled

Input line: Confirm if Percent Effect reported for the molecule Cc1nccn1-c1ccc(CNS(=O)(=O)N2CCCC(C)C2)cn1 (stereo unspecified) is 60% or above.
Output line: not fulfilled

Input line: Confirm if Percent Effect reported for the molecule `CC(=O)c1c(F)cccc1NC1CCN(C(=O)C2CCCCC2)CC1` is 60% or above.
Output line: not fulfilled

Input line: Confirm if Percent Effect reported for the molecule `CS(=O)(=O)CCNC(=O)NCCc1cc2ccccc2o1` is 60% or above.
Output line: not fulfilled

Input line: Confirm if Percent Effect reported for the molecule `CC(C)(C)C(=O)N1CCC(n2nc(-c3ccco3)ccc2=O)CC1` is 60% or above.
Output line: fulfilled

Input line: Confirm if Percent Effect reported for the molecule `CN1C[C@@H](C(=O)NCC(F)(F)F)[C@@]2(CCc3ccccc3C(=O)N2)C1` is 60% or above.
Output line: fulfilled

---

tested on: Wolbachia pipientis; experiment: Anti-Wolbachia Cell-Based Screen; assay type: functional; set-up: scale not given: in the data most compounds retested in dose-response had high values; details: 5 µM
About 13,000 (27%) of roughly 48,000 compounds showed an effect of 50% or more. The list shows a part of the results.
Hi there, I'd appreciate the recorded Percent Effect for every entry that follows.
Answers are plain numbers, in %.

Please review the following examples before continuing.
[[record]]
compound = "CC(C)NC(=O)N1C[C@H]2C[C@H](C(=O)NCc3ccccc3)[C@@H](C1)O2"
target_entity = "Wolbachia pipientis"
unit = "%"
recorded_result = -9.895

[[record]]
compound = "CCc1cnc(N2C[C@H]3C[C@H](C(=O)NC4CCC4)[C@@H](C2)O3)nc1"
target_entity = "Wolbachia pipientis"
unit = "%"
recorded_result = -0.2357

[[record]]
compound = "CC(C)NS(=O)(=O)c1cc(C(=O)O)cc(-c2ccccc2C#N)c1"
target_entity = "Wolbachia pipientis"
unit = "%"
recorded_result = 4.012

[[record]]
compound = "Cc1nc(NC(=O)N2CCCC(C(F)(F)F)C2)nn1C (configuration not stated)"
target_entity = "Wolbachia pipientis"
unit = "%"
recorded_result = -33.51

[[record]]
compound = "CCc1ccc(NC(=O)N2C[C@H]3C[C@H](C(=O)NC4CCC4)[C@@H](C2)O3)cc1"
target_entity = "Wolbachia pipientis"
unit = "%"
recorded_result = 117.1


I'm hoping you can list Percent Effect for every compound here, please.
1. Cc1ccc(S(=O)(=O)N2C[C@H]3C[C@H](NC(=O)c4ccnn4C)[C@H]3C2)cc1
2. Cc1ccc(S(=O)(=O)N2CC[C@@H]3C[C@H](NC(=O)c4[nH]ncc4Br)[C@@H]32)cc1

Output line:
-12.92
95.45

---

system: Wolbachia pipientis; assay: Anti-Wolbachia Cell-Based Screen; type: functional; design: scale not given: in the data most compounds retested in dose-response had high values; details: 5 µM
Hit rate of the full screen: of about 48,000 compounds, about 13,000 (27%) showed an effect of 50% or more. The list shows a part of the results.
RESULT TYPE: Percent Effect (%)
Answers are plain numbers, in %.

Please review the following examples before continuing.
[[record]]
compound = "COc1ccccc1C(C)Nc1ncc(C(N)=O)cc1Cl (stereo not given)"
unit = "%"
recorded_result = 2.47

[[record]]
compound = "CC(C)CN1CCc2[nH]cnc2C12CCN(C(=O)c1ccnn1C)CC2"
unit = "%"
recorded_result = -2.92

[[record]]
compound = "CC(=O)N1CCN(Cc2ccc(F)cc2)CC2(CC(=O)N(C)C2)C1.O=C(O)C(F)(F)F (stereo not given)"
unit = "%"
recorded_result = 98.03

[[record]]
compound = "CN(C)S(=O)(=O)N1CC[C@]2(C[C@H](Oc3cccnc3)CO2)C1.O=C(O)C(F)(F)F"
unit = "%"
recorded_result = -11.38

[[record]]
compound = "CC(C)(C)N1CCCN(C(=O)c2csc(S(N)(=O)=O)c2)CC1"
unit = "%"
recorded_result = 4.518

[[record]]
compound = "CC1(c2ccccc2)CCC(=O)N(CCN2CCOCC2)C1 (stereo not given)"
unit = "%"
recorded_result = 8.315


I'm hoping you can list Percent Effect for every compound here, please.
1. CCNC(=O)C(C)(C)NC(=O)NCc1cccc(Br)c1
2. CC(C)n1c2ccccc2c2c1cc(C(=O)N(C)C)n2C(=O)N(C)C
3. CCN1CC2(CC1=O)CN(Cc1cnn(C)c1)CCN(C(C)=O)C2.O=C(O)C(F)(F)F (stereo not given)
4. CCC1=N[C@@]2(CC[C@@H]3CN(S(=O)(=O)CC(C)C)C[C@@H]32)C(=O)N1CC
5. CCn1ccnc1CN(C)Cc1nc(Cc2ccccc2F)no1
6. CCCN(CC)C(=O)c1cc2c(c3ccccc3n2C)n1C(=O)N(C)C
7. Cc1noc(C)c1CS(=O)(=O)CC(=O)N(C)Cc1cccc(F)c1

Output line:
1. 5.794
2. 90.72
3. 1.894
4. 2.129
5. -2.902
6. -10.54
7. -54.06

I'm hoping you can list Percent Effect for every compound here, please.
1. CCc1c(NCc2cccnc2)cnn1CC(C)C
2. Cc1cc2nc(CO[C@H]3CN(C4CCN(C)CC4)C[C@H]3F)[nH]c2cc1C

Output line:
1: -15.31; 2: -19.54

---

test system: Wolbachia pipientis; test: Anti-Wolbachia Cell-Based Screen; type: functional; parameters: scale not given: in the data most compounds retested in dose-response had high values; settings: 5 µM
Hit rate of the full screen: of about 48,000 compounds, about 13,000 (27%) showed an effect of 50% or more. The list shows a part of the results.
RESULT TYPE: Percent Effect (%)
One number for each entry, in %.

[[record]]
compound = "CCn1nc(C)c(CN(Cc2ccccn2)Cc2ccccc2Cl)c1C"
target_entity = "Wolbachia pipientis"
result_type = "Percent Effect"
recorded_result = 105.5

[[record]]
compound = "O=C(O)C(F)(F)F.O=C(O)C(F)(F)F.O=C(O)C(F)(F)F.c1ccc(COC[C@H]2CC[C@H]3[C@H](CCN3Cc3cccnc3)O2)nc1"
target_entity = "Wolbachia pipientis"
result_type = "Percent Effect"
recorded_result = -5.696


I'm hoping you can list Percent Effect for every compound here, please.
1. O=C(O)C(F)(F)F.O=C(O)C(F)(F)F.O=C(O)C(F)(F)F.c1cncc(CN2CC[C@@H]3O[C@H](COCCN4CCCC4)CC[C@@H]32)c1
2. Cn1ccnc1CN1CCC2(CC1)COCCN(c1ncccn1)C2
3. Cc1nc(C(Cc2ccsc2)NC(=O)CN2CCOCC2)sc1C (configuration not stated)
4. O=C(NC1CC1)c1ccnc(N2CCOC(c3ccc(Cl)cc3)C2)c1 (configuration not stated)
5. Cc1nc2ccccc2nc1CN1CCCCC1Cn1cccn1 (configuration not stated)

Output line:
[86.61, 118.1, 171.6, -21.25, -6.205]
